pIC50: −log10 of the molar value. Where a name gives a salt, the structure may show the parent alone.
The next entries give measured pIC50 for Human H3 (Homo sapiens (Human)).

Some molecules with known pIC50 results, for comparison:
Task item: Would you kindly share the measured pIC50 for CCc1nn2c(C)cc(C)nc2c1Cc1ccc(/C=C/CN2CCN[C@@H](CN(C)C)C2)cc1 [Example 13, trihydrochloride] ?
Reply: 5.31

Task item: Continue with CCc1nn2c(C)cc(C)nc2c1Cc1ccc(/C=C/CN2CCNCC2)cc1
Reply: < 4.52

Attention now shifts to the item below.
Task item: Would you kindly share the measured pIC50 for CCc1nn2c(C)cc(C)nc2c1Cc1ccc(/C=C/CN2CCN[C@H](CO)C2)cc1 [Example 8, dihydrochloride] ?
Reply: < 4.52

---

Items are presented alongside their recorded log10(IC50).
- study-system: human GPR4 (Homo sapiens (Human), UniProt P46093)
- Sequence (P46093 whole entry): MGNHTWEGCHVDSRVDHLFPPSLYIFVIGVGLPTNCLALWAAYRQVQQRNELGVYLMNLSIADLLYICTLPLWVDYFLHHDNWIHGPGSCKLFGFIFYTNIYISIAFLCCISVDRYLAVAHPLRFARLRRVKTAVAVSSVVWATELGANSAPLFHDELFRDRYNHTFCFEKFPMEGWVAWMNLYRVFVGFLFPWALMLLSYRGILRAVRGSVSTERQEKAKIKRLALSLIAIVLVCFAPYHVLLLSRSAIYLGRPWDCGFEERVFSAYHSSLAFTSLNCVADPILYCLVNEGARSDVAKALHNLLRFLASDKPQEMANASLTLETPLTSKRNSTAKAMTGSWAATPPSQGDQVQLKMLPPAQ
- measurement-notes: Human GPR4 binding assay with additional human serum albumin (4% HSA)
- test-parameters: binding assay with 4% HSA
Counter-ions that a name gives are not always drawn.
Each number you see is log10 of IC50, and the unit inside the log is nM.

Some compounds with known log10(IC50) results, for comparison:
Task item: Would you kindly share the measured log10(IC50) for CCc1nn2c(C)cc(C)nc2c1Cc1ccc(/C=C/CC2(O)CCNCC2)cc1 ?
Reply: 1.69

Task item: Continue with CCc1nn2c(C)cc(C)nc2c1Cc1ccc(OC[C@H]2CC[C@@H](NC(=O)[C@H]3NCC[C@H]3O)CC2)cc1
Reply: 1.80

Task item: Continue with CCc1nn2c(C)cc(C)nc2c1Cc1ccc(/C=C/C[C@]2(O)CCN[C@@H](C)C2)cc1
Reply: 1.04

Task item: Continue with CCc1nn2c(C)cc(C)nc2c1Cc1ccc(OC[C@H]2CC[C@@H](N)CC2)cc1
Reply: 1.28

Task item: Continue with CCc1nn2c(C)cc(C)nc2c1Cc1ccc(/C=C/CN2CCN[C@@H](C)C2)cc1
Reply: 0.78

Task item: Continue with CCc1nn2c(C)cc(C)nc2c1Cc1ccc(OCCN2CCNCC2)cc1
Reply: 1.84

More entries:
Task item: Would you kindly share the measured log10(IC50) for CCc1nn2c(C)cc(C)nc2c1Cc1ccc(/C=C/CN2CCN[C@H](CO)C2)cc1 [Example 8, dihydrochloride] ?
Reply: 1.71

Task item: Continue with CCc1nn2c(C)cc(C)nc2c1Cc1ccc(/C=C/CN2CCN[C@H](COC)C2)cc1
Reply: 1.97

---

- study-system: UniProtKB P46093
- measurement-notes: Cell-based assay for human GPR4 activity (pH-induced cAMP formation, HTRF, HeLa cells)
- test-parameters: HeLa cells stably expressing human GPR4, pH-induced cAMP
Counter-ions that a name gives are not always drawn.
Note to self: use 1 only for IC50 readings below 60 nM; a reading exactly at 60 nM still gets -1.

Task item: Identify whether the compound CCc1nn2c(C)cc(C)nc2c1Cc1ccc(-c2nnc(C3CCN(C(=O)[C@H](CO)NC)CC3)o2)cc1 [Example 38, hydrochloride] records IC50 below 60 nM.
Reply: 1

Task item: Continue with CCc1nn2c(C)cc(C)nc2c1Cc1ccc(OCCN2CCN[C@@H](COC)C2)cc1 [Example 27]
Reply: -1

More entries:
Task item: Identify whether the compound CCc1nn2c(C)cc(C)nc2c1Cc1ccc(-n2cc(CC3(O)CCNCC3)nn2)cc1 [Example 34] records IC50 below 60 nM.
Reply: 1

Task item: Continue with CCc1nn2c(C)cc(C)nc2c1Cc1ccc(/C=C/CN2CCN[C@@H](CN(C)C)C2)cc1 [Example 13, trihydrochloride]
Reply: -1

Task item: Continue with CCc1nn2c(C)cc(C)nc2c1Cc1ccc(/C=C/CC2(O)CNC2)cc1 [Example 2]
Reply: 1

Numbers sourced from patent US8748435B2.
